Property: melting point; scope: individual compounds

# example entries with known answers
[
  {
    "compound": "Cc1ccccc1C1(CNC(=O)Nc2c(C(C)C)cccc2C(C)C)CCCC1",
    "melting point": "147 to 150 °C"
  },
  {
    "compound": "CCCCCCCCCCCCCCCCNc1ccc(C(=O)OCC(C)O)cc1 (stereo not given)",
    "melting point": "91 to 93 °C"
  }
]

So for Cc1cc(OCC(O)CNC(C)(C)C)ccc1-c1nc(C(F)(F)F)c[nH]1 (stereo not given) , the logged melting point turned out to be 162 to 164 °C

So for CN1CCC(Oc2ccc(F)cc2C(N)=O)C1 (stereo not given) , the logged melting point turned out to be 90 to 93 °C

So for Cc1ccc2c(c1)[C@H](Nc1ncnc(NC(=O)C(F)(F)F)n1)[C@@H](C)C2 , the logged melting point turned out to be 55 to 58 °C

###

observation.type: melting point

# example entries with known answers
[
  {
    "compound": "ClCc1nnnn1C1CCCCC1",
    "melting point": "101 to 104 °C"
  },
  {
    "compound": "COC(=O)CCC(=O)c1ccc(N)cc1",
    "melting point": "160 to 162 °C"
  },
  {
    "compound": "CCCCCCCCCC(=O)SCC(C)(C(=O)Nc1cccc(C(=O)O)c1C)c1ccccc1 (stereo not given)",
    "melting point": "105 to 111 °C"
  }
]

Attention now shifts to the item below.
So for S=C(NCCC1=CCCCC1)Nc1nccs1 , the logged melting point turned out to be 147 to 148 °C

###

Property: melting point; scope: individual molecules

[
  {
    "molecule": "O=C1c2cccc3cccc(c23)C(O)N1CCN1CCC(Cc2ccccc2)CC1 (stereo not given)",
    "observation.type": "melting point",
    "data.value": "153 to 155 °C"
  },
  {
    "molecule": "COc1ccc(C(=O)N2CCC(N(C)c3ccccc3Cl)c3ccccc32)cc1OC (stereo not given)",
    "observation.type": "melting point",
    "data.value": "146 to 147 °C"
  },
  {
    "molecule": "Nc1c(N=O)c(=O)n(CC2CCCCCC2)c(=O)n1CC1CCCCCC1",
    "observation.type": "melting point",
    "data.value": "> 250 °C"
  },
  {
    "molecule": "O=C1OC(=O)[C@@H](Cl)[C@@H]1Cl (relative stereo)",
    "observation.type": "melting point",
    "data.value": "90 to 92 °C"
  },
  {
    "molecule": "COC(=O)Cc1cccc2c(=O)cc(C3=CCCCC3)oc12",
    "observation.type": "melting point",
    "data.value": "137 to 138 °C"
  },
  {
    "molecule": "CC(=O)Oc1ccc(-c2cnc(NC(=O)Cc3ccccc3)c(Cc3ccccc3)n2)cc1",
    "observation.type": "melting point",
    "data.value": "228 to 231 °C"
  }
]

So for Cc1cccc(CC(Cc2cccc(C)c2)C(=O)O)c1 , the logged melting point turned out to be 86 to 88 °C

So for Cc1cccc(-c2c(=O)[nH]c3cc(Cl)c(Cl)cc3[n+]2[O-])c1 , the logged melting point turned out to be 260 to 262 °C

So for CC(C)(C)C(=O)Nc1cc(OCc2ccccc2)c(OCc2ccccc2)cc1N , the logged melting point turned out to be 115 °C

So for O=C(O)CN(C(=O)CCSC(=O)c1ccccc1)[C@H]1CC[C@H](c2ccccc2)CC1 , the logged melting point turned out to be 125 to 128 °C

So for CCCc1nc2c(c(C)c(C)n3nnnc23)n1CC(C)(C)NC(C)=O , the logged melting point turned out to be 237 to 240 °C

###

Property: melting point; scope: individual molecules

# example entries with known answers
[
  {
    "molecule": "CC(C)(S)CNC(=O)CCCC(=O)O",
    "melting point": "101 to 104 °C"
  },
  {
    "molecule": "COc1ccc(C(=O)OCc2ccccc2)cc1NC(=S)Nc1cc(Cl)cc(Cl)c1",
    "melting point": "144 to 145 °C"
  },
  {
    "molecule": "COC(=O)CCc1sc(Sc2ccc(O)cc2)nc1-c1ccccc1",
    "melting point": "153 to 155 °C"
  },
  {
    "molecule": "Brc1ccc(/C=N/c2ccccc2)c(OCc2ccccc2)c1",
    "melting point": "100 °C"
  }
]

So for N#CCCCCn1cnc(NC(N)=NCC(F)(F)F)n1 , the logged melting point turned out to be 200 to 201 °C

So for Cc1noc(NS(=O)(=O)c2ccccc2-c2ccc(-c3ncco3)cc2CN(C)C(=O)CC(F)(F)F)c1C , the logged melting point turned out to be 85 to 100 °C

So for CC(=O)C1Oc2cc3c(cc2O1)=NC(F)(F)N=3 , the logged melting point turned out to be > 220 °C

So for CC(=O)Nc1ccc(Nc2nccc(-c3sc(C)nc3C)n2)cc1 , the logged melting point turned out to be 219 to 220 °C

So for CC(C#Cc1cccc(Oc2cccs2)c1)N(O)C(N)=O (stereo unspecified) , the logged melting point turned out to be 110 to 112 °C

So for CCN(CC)C(=O)c1cc(-c2ccccc2)ccc1-c1ccccc1 , the logged melting point turned out to be 128 to 130 °C

###

Property: melting point; scope: individual compounds

# example entries with known answers
[
  {
    "compound": "Cc1cc(-c2cc(C(F)(F)F)n3ncc(C(=O)Nc4cccc(S(N)(=O)=O)c4)c3n2)ccc1Cl",
    "data.value": "275 °C"
  },
  {
    "compound": "CC1(O)NC(=O)OC12CCNCC2 (configuration not stated)",
    "data.value": "192 to 194 °C"
  },
  {
    "compound": "O=C(Nc1ccccc1Sc1ccccc1)N[C@@H](Cc1ccc(NC(=O)c2c(Cl)cccc2Cl)cc1)C(=O)O",
    "data.value": "220 °C"
  },
  {
    "compound": "O=c1oc(-c2ccc(OCCCc3ccccc3)cc2)cc(O)c1SCCc1ccccc1",
    "data.value": "139 to 142 °C"
  },
  {
    "compound": "CC(=O)OC1CSC(Oc2cccc(-c3cccnc3)c2)C(OC(C)=O)C1OC(C)=O (configuration not stated)",
    "data.value": "123 to 126 °C"
  }
]

So for O=C1NC(=O)C(=Cc2cc(O)c(O)c([N+](=O)[O-])c2)N1 , the logged melting point turned out to be > 350 °C

So for CCc1cc(Cl)c(N)c(Cl)c1 , the logged melting point turned out to be 47 to 48 °C

So for O=[N+]([O-])c1cc(F)c(N2CCCCC2)cc1Cl , the logged melting point turned out to be 70 °C

So for Cc1nn(-c2cc(N)c(Cl)cc2F)c(Cl)c1Br , the logged melting point turned out to be 113 to 116 °C

So for CCc1cc(C(=O)NCc2ccc(-c3ccc(OC(F)F)cc3)cc2)n(C)n1 , the logged melting point turned out to be 107 to 108 °C

So for COc1ccc2nn(-c3cc(OCCCO)cc(C(C)(C)C)c3O)nc2c1 , the logged melting point turned out to be 128 to 130 °C

So for CCOc1cc2cc(C(=O)O)cc(-c3ccnc(Cl)c3)c2cc1OCC , the logged melting point turned out to be > 250 °C

So for COc1ccc(-c2[nH]nc3c2C(=O)c2c(NC(=O)NN(C)C)cccc2-3)cc1 , the logged melting point turned out to be > 300 °C

So for CCCCc1nc(Cl)c(CC(=O)OCC)c(Cc2ccc(C(=O)OC)cc2)n1 , the logged melting point turned out to be 78 °C

So for O=C(NCc1ccc2c(c1)OCO2)c1ccc2[nH]c(=O)n(Cc3ccccc3)c(=O)c2c1 , the logged melting point turned out to be 176 °C

So for COc1ccc(C#CCCN2CCOC2=O)cc1OC , the logged melting point turned out to be 78 to 79 °C

So for CCNC(=O)c1ccccc1[Si](C)(C)C , the logged melting point turned out to be 64 to 66 °C

So for CCCCCCCNC(=O)N(C)c1cccc(-c2ccc(C=C(OCC)C(=O)O)cc2OCCCC)c1 , the logged melting point turned out to be 103 °C

So for ClCc1csc(N2CCOCC2)n1 , the logged melting point turned out to be 87 to 88 °C

So for Fc1cccnc1C#CCCc1nc2ccccc2o1 , the logged melting point turned out to be 86 to 88 °C

So for COc1cc2ccccc2c(C2NCCc3ccccc32)c1O (configuration not stated) , the logged melting point turned out to be 154 to 156 °C

So for C=CCN1C(=O)C2CC2(c2ccc(NC(C)=O)cc2)C1=O (configuration not stated) , the logged melting point turned out to be 113 to 116 °C

So for Cn1nc(-c2cc(O)c(Cl)cc2F)c(Cl)c1C(F)(F)F , the logged melting point turned out to be 123 to 126 °C

FYI, the data here is from a melting point compilation (Tetko et al.; mined from patent text by program, amines drawn as free bases though some values may be those of a salt).
